system.name: Yap3 (UniProt P38749)
Sequence: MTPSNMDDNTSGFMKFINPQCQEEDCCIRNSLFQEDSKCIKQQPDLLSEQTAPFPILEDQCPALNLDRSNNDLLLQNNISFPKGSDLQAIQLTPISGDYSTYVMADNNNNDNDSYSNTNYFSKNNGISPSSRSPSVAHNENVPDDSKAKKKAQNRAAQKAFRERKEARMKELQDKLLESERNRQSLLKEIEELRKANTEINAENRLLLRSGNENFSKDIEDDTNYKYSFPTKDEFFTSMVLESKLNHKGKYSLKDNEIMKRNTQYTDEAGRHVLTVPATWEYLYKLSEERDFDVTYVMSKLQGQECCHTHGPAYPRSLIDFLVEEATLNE
protocol.description: PBM E-score (8-mer binding enrichment) (E-score (-0.5 to 0.5)); higher = stronger / more preferred TF binding
stated.conditions: protein concentration: 100 nM; construct: GST-full length
The full ranking holds about 33,000 sequences; the median of “E-score (-0.5 to 0.5)” is about -0.0034, and the highest 2% start at about 0.25. This excerpt belongs to a sample that is enriched for the highest values.
PBM E-score values by entry
quantity.kind: PBM E-score

[[record]]
sequence_chain = "CGATGGAC"
result = -0.0566

[[record]]
sequence_chain = "GTACATAA"
result = 0.135

[[record]]
sequence_chain = "AGCTGTCG"
result = -0.197

[[record]]
sequence_chain = "AATCAATC"
result = 0.139

[[record]]
sequence_chain = "ATTAAAGG"
result = 0.199

[[record]]
sequence_chain = "CATGGGCA"
result = -0.0447

[[record]]
sequence_chain = "GTATCTTA"
result = 0.267

[[record]]
sequence_chain = "GGAGCAAA"
result = 0.016

[[record]]
sequence_chain = "GAAGGCAC"
result = -0.128

[[record]]
sequence_chain = "ATACATAG"
result = 0.112

[[record]]
sequence_chain = "GGTTAATA"
result = 0.0683

[[record]]
sequence_chain = "GTTTAAGA"
result = -0.0881

[[record]]
sequence_chain = "TAGGTAGA"
result = 0.076

[[record]]
sequence_chain = "CCTCAGGA"
result = -0.184

[[record]]
sequence_chain = "CGAATATC"
result = 0.154

[[record]]
sequence_chain = "ATTAGATA"
result = 0.178

[[record]]
sequence_chain = "ACACATAG"
result = -0.0796

[[record]]
sequence_chain = "AGAGAACA"
result = 0.206

[[record]]
sequence_chain = "ATACATAC"
result = 0.0937

[[record]]
sequence_chain = "ATTTAATA"
result = 0.302

[[record]]
sequence_chain = "AGTCAGGG"
result = -0.185

[[record]]
sequence_chain = "TCTTGTAA"
result = 0.118

[[record]]
sequence_chain = "CAAATCTC"
result = 0.0919

[[record]]
sequence_chain = "GCACATAA"
result = 0.131

[[record]]
sequence_chain = "AGCAAGTG"
result = -0.0827

[[record]]
sequence_chain = "ACGTCTCT"
result = -0.138

[[record]]
sequence_chain = "AGTTAATA"
result = 0.264

[[record]]
sequence_chain = "GTATCTGA"
result = 0.133

[[record]]
sequence_chain = "GCTCCTCC"
result = -0.294

[[record]]
sequence_chain = "CAAAACGA"
result = 0.133

[[record]]
sequence_chain = "ACGCACCC"
result = -0.243

[[record]]
sequence_chain = "AGTTAATC"
result = 0.0976

[[record]]
sequence_chain = "ATTAGATG"
result = 0.261

[[record]]
sequence_chain = "ATCTTCTA"
result = 0.0985

[[record]]
sequence_chain = "AATCAACA"
result = 0.304

[[record]]
sequence_chain = "ACACCACA"
result = 0.0359

[[record]]
sequence_chain = "CTATCTTA"
result = 0.126

[[record]]
sequence_chain = "AAAAACGA"
result = 0.256

[[record]]
sequence_chain = "CTCTCTAA"
result = -0.149

[[record]]
sequence_chain = "CAATTTCC"
result = 0.0859

[[record]]
sequence_chain = "CTTTAAGA"
result = 0.0783

[[record]]
sequence_chain = "AAAATAAG"
result = 0.271

[[record]]
sequence_chain = "ACAACAGA"
result = -0.0683

[[record]]
sequence_chain = "TAATTTCA"
result = 0.309

[[record]]
sequence_chain = "CCTCTGGA"
result = -0.136

[[record]]
sequence_chain = "TATCAACA"
result = 0.123

[[record]]
sequence_chain = "CTACATAA"
result = -0.0287

[[record]]
sequence_chain = "ATTAGATC"
result = 0.0781

[[record]]
sequence_chain = "GCTCGCGA"
result = 0.109

[[record]]
sequence_chain = "GCTCTCCA"
result = -0.215

[[record]]
sequence_chain = "CAAATATC"
result = 0.285

[[record]]
sequence_chain = "AAAATATA"
result = 0.19

[[record]]
sequence_chain = "ATACATAT"
result = 0.286

[[record]]
sequence_chain = "CGTAGATC"
result = 0.0115

[[record]]
sequence_chain = "TCTGCTAA"
result = 0.0116

[[record]]
sequence_chain = "CGAGAACC"
result = -0.00819

[[record]]
sequence_chain = "CGCTGCTC"
result = -0.133

[[record]]
sequence_chain = "AAATTTCC"
result = 0.125

[[record]]
sequence_chain = "TAAACTAA"
result = 0.282

[[record]]
sequence_chain = "ACAACGCG"
result = 0.0663

[[record]]
sequence_chain = "GTTTAATA"
result = 0.272

[[record]]
sequence_chain = "ACGCGTTG"
result = -0.027

[[record]]
sequence_chain = "GTCCCTTA"
result = 0.179

[[record]]
sequence_chain = "CAAGGGGG"
result = -0.226

[[record]]
sequence_chain = "ATAGCGTG"
result = -0.00896

[[record]]
sequence_chain = "ATAGGGCC"
result = -0.174

[[record]]
sequence_chain = "AGACATAT"
result = 0.185

[[record]]
sequence_chain = "CGCAGCGA"
result = -0.0766

[[record]]
sequence_chain = "CAAGTATA"
result = -0.0229

[[record]]
sequence_chain = "GAATTTCC"
result = 0.277

[[record]]
sequence_chain = "CCGCCACC"
result = -0.155

[[record]]
sequence_chain = "AGAATCGG"
result = -0.0519

[[record]]
sequence_chain = "GTTCGTAA"
result = 0.192

[[record]]
sequence_chain = "CATGAACC"
result = 0.0622

[[record]]
sequence_chain = "ATCAGTAG"
result = 0.0393

[[record]]
sequence_chain = "CAAATACC"
result = 0.0818

[[record]]
sequence_chain = "ACAGAAAA"
result = 0.198

[[record]]
sequence_chain = "CAAGGGTC"
result = -0.0382

[[record]]
sequence_chain = "TCGGTTAA"
result = 0.168

[[record]]
sequence_chain = "CCAGAAAC"
result = 0.0139

[[record]]
sequence_chain = "TAAGTATA"
result = 0.275

[[record]]
sequence_chain = "AATCAATG"
result = 0.2

[[record]]
sequence_chain = "CCAGCAAA"
result = 0.0803

[[record]]
sequence_chain = "AGAATGCG"
result = 0.0426

[[record]]
sequence_chain = "ACCAGTTG"
result = 0.0294

[[record]]
sequence_chain = "CTTTAATC"
result = 0.152

[[record]]
sequence_chain = "ACCGCGAA"
result = -0.00285

[[record]]
sequence_chain = "TCGGGCCA"
result = -0.132

[[record]]
sequence_chain = "ATACATCA"
result = 0.207

[[record]]
sequence_chain = "AAAATAAC"
result = 0.0743

[[record]]
sequence_chain = "ACTGAAAG"
result = 0.114


Recorded values, source the supplement of paper PMC3334620.
